Molecular target: GSK3b (GST-full length GSK3b) (Homo sapiens (Human))
Sequence (P49841 whole entry): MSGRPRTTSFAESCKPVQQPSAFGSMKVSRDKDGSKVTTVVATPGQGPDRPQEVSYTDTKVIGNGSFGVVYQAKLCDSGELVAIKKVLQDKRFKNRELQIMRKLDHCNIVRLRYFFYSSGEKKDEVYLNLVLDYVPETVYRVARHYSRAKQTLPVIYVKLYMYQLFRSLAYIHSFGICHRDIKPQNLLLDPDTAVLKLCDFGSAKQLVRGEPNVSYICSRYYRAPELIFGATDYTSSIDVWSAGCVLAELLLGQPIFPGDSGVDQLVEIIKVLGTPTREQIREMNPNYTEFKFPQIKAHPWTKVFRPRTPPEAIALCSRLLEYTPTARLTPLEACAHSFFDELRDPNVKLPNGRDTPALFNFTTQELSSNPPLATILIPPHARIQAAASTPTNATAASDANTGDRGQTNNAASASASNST
Assay: GSK3b TR-FRET kinase assay
Assay type: biochemical
Settings: read-out: GSK3-B (TR-FRET 1 mM ATP); GMean; IC50; 1 mM ATP; geometric mean
pIC50: −log10 of the molar value.
Below, each of the compounds is paired with its reported pIC50 value.
observable: pIC50

> print(dat)
                                   compound                            assayed.target  observable      reported
1  CCC1(c2cccc(-c3ccncc3C)c2)C2=C(CC(C)(C)CC2=O)Nc2n[nH]c(C(F)(F)F)c21 (stereo not shown)  GSK3b (GST-full length GSK3b) (Homo sapiens (Human))       pIC50  6.00 to 7.00
2  CN1CC2(C3=C(CC(C)(C)CC3=O)Nc3n[nH]c(CC(C)(C)C)c32)c2ccccc21 (stereo not shown) [Compound 125978]  GSK3b (GST-full length GSK3b) (Homo sapiens (Human))       pIC50  6.00 to 7.00
3  CC(C)(C)Cc1[nH]nc2c1C(C)(c1cccc(S(=O)(=O)N3CCCC3)c1)C1=C(CC(C)(C)NC1=O)N2 (stereo not shown)  GSK3b (GST-full length GSK3b) (Homo sapiens (Human))       pIC50  6.00 to 7.00
4  CC(C)(C)Cc1[nH]nc2c1C(C)(c1cc(S(C)(=O)=O)ccc1F)C1=C(CC(C)(C)CC1=O)N2 (stereo not shown) [Compound 125977]  GSK3b (GST-full length GSK3b) (Homo sapiens (Human))       pIC50        < 5.30
5  CC(C)(C)Cc1[nH]nc2c1C(C)(c1cc(S(C)(=O)=O)ccc1F)C1=C(CC(C)(C)CC1=O)N2 (stereo not shown) [Compound 125976]  GSK3b (GST-full length GSK3b) (Homo sapiens (Human))       pIC50  6.00 to 7.00
6  CC[C@@]1(c2cccc(-c3cnn(C)c3)c2)C2=C(Nc3n[nH]cc31)[C@H](F)C(C)(C)CC2=O  GSK3b (GST-full length GSK3b) (Homo sapiens (Human))       pIC50        < 5.30
7  CC[C@]1(c2cccc(-c3c(C#N)cnn3C)c2)C2=C(CC(C)(C)NC2=O)Nc2n[nH]c(C)c21  GSK3b (GST-full length GSK3b) (Homo sapiens (Human))       pIC50  5.30 to 6.00

---

Target: GSK3α (GST-full length GSK3α) (Homo sapiens (Human), UniProt P49840)
Sequence (P49840 whole entry): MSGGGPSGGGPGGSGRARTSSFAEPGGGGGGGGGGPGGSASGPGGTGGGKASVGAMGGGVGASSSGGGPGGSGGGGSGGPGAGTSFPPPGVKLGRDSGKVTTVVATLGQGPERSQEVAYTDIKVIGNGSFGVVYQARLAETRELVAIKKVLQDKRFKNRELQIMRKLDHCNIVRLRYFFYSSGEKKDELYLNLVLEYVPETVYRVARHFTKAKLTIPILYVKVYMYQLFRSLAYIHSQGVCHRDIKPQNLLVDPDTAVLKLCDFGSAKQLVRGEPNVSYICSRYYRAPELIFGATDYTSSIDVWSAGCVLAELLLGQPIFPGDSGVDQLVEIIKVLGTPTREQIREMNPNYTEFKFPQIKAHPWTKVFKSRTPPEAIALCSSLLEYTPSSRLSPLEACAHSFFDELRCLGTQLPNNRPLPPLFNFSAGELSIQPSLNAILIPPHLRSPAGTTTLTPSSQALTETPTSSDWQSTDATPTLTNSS
Assay: GSK3α TR-FRET kinase assay
Type: biochemical
Settings: 1 nM GSK3α, 4 μM ATP, 30 minute preincubation, Table 16; read-out: GSK3-A TR-FRET BIOCHEMICAL (TR-FRET)
Experimental: TR-FRET Assay: The assay was performed in a white, 384 well, low volume, flat bottom plate (Grenier). After a 30 minute preincubation in assay buffer with the indicated concentration of compound, the kinase activity was initiated by the addition of the substrates. […] After 60 min at room temperature the plate was read on Envision plate reader using Ex: 340 nm, Em: 615 nm and […]. The normalized 665/615 Signal ratio versus log compound concentration was analyzed by XLFIT to yield IC50 values.
pIC50: −log10 of the molar value.
observable: pIC50

> print(dat)
                                   compound                            assayed.target  observable      reported
1  C[C@H]1C[C@]2(CCN1S(C)(=O)=O)C1=C(CC(C)(C)CC1=O)Nc1n[nH]cc12  GSK3α (GST-full length GSK3α) (Homo sapiens (Human), UniProt P49840)       pIC50        ≥ 7.00
2  CC[C@@]1(c2ccccc2)C2=C(CC(C)(C)C(O)C2=O)Nc2n[nH]cc21 (stereo partly shown)  GSK3α (GST-full length GSK3α) (Homo sapiens (Human), UniProt P49840)       pIC50  6.00 to 7.00
3  Cn1ccc(S(=O)(=O)N2CCC3(CC2)C2=C(Nc4n[nH]cc43)[C@H](F)C(C)(C)CC2=O)n1  GSK3α (GST-full length GSK3α) (Homo sapiens (Human), UniProt P49840)       pIC50        ≥ 7.00
4  CO[C@H]1CC[C@]2(CC1)C1=C(CC(C)(C)CC1=O)Nc1n[nH]cc12  GSK3α (GST-full length GSK3α) (Homo sapiens (Human), UniProt P49840)       pIC50        ≥ 7.00
